Reported pKi on UniProtKB Q13464 for assorted compounds, compiled from publications.
pKi: −log10 of the molar value.

Sample records with pKi:
>  <Compound>
Cc1c[nH]c2nccc(Oc3ccc(C[C@H](N)C(=O)NC4CCN(C5CCOC5)CC4)cc3F)c12 (some centres unmarked)

>  <pKi>
> 8.52

$$$$
>  <Compound>
CNC(=O)[C@@H](Nc1nc(-c2c[nH]c3ncc(Cl)cc23)ncc1F)C(C)(C)C

>  <pKi>
5.30 to 6.30

$$$$
>  <Compound>
Fc1cnc(-c2c[nH]c3ncc(Cl)cc23)nc1SCc1ccc(Cl)cc1

>  <pKi>
5.30 to 6.30

$$$$
>  <Compound>
Clc1cnc2[nH]cc(-c3cccc(NC4CCCC4)n3)c2c1

>  <pKi>
5.30 to 6.30

$$$$
>  <Compound>
CC1=C(C(=O)Nc2ccc3[nH]ncc3c2)C(c2ccc(F)cc2)n2nc(C)cc2N1 (centres unmarked)

>  <pKi>
> 7.30

$$$$
>  <Compound>
CC(C)CNc1cc(C#N)cc(-c2c[nH]c3ncc(Cl)cc23)n1

>  <pKi>
5.30 to 6.30

$$$$
>  <Compound>
CC(=O)N1[C@H](C)CN(c2cccc(-c3c[nH]c4ncc(OCCCN(C)C)cc34)n2)C[C@@H]1C

>  <pKi>
5.30 to 6.30

$$$$

Now consider the entry below.
Measured on UniProtKB Q13464, CC1=C(C(=O)Nc2ccc3[nH]ncc3c2)C(c2ccc(Cl)cc2F)n2nc(CO)cc2N1 (centres unmarked) has a documented pKi of > 7.30
